# Lookup of reported λmax keyed by entry
protocol-details: UV absorbance spectrum in solution (λmax, λcrit, extinction coefficients)
Format: physicochemical
Respond numerically; units are nm and should not be typed.

CCCCC(CC)COC(=O)c1ccc2c(c1)CCN2/C=C(\C(=O)C(F)(F)F)c1ccccc1 (stereo not shown) [Compound 215] :: 374

Give its λmax value. Item: CCCCC(CC)COC(=O)c1ccc2c(c1)CCN2/C=C(/C(=O)c1ccncc1)c1ccccc1 (stereo not shown) [Compound 308]
374

Same for O=C(/C(=C\N(c1ccccc1)c1ccccc1)c1ccccc1)C(F)(F)F [Compound 143]
351

Same for CC(C)(C)C(=O)/C(=C/N1CCc2cc(C(=O)OCCCOC(=O)c3ccc4c(c3)CCN4/C=C(/C(=O)C(C)(C)C)c3ccccc3)ccc21)c1ccccc1 [Compound 304]
365

Same for CCCCC(CC)COC(=O)c1ccc(N(/C=C(\C(=O)C(F)(F)F)c2ccccc2)c2ccccc2)cc1 (stereo not shown) [Compound 230]
355

Same for Cc1cc(C)c(C(=O)/C(=C/N(c2ccccc2)c2ccccc2)c2ccccc2)c(C)c1 [Compound 254]
341

Same for COC(=O)c1ccc2c(c1)CCN2/C=C(/C(=O)C(=O)OC(C)(C)C)c1ccccc1 [Compound 269]
374

Same for COC(=O)c1ccc2c(c1)CCN2/C=C(/C(=O)c1ccc(C(C)(C)C)cc1)c1ccccc1 [Compound 287]
373

Same for CN(C)C(=O)C(=O)/C(=C/N(c1ccccc1)c1ccccc1)c1ccccc1 [Compound 257]
346

Same for CCN(/C=C(/C(=O)C(F)(F)F)c1ccccc1)c1ccc(C(=O)OC)cc1 [Compound 239]
348

Same for CCCN(/C=C(/C(=O)C(F)(F)F)c1ccccc1)c1ccccc1 [Compound 233]
331

Same for CCOC(=O)C(=O)/C(=C\N(CC)c1ccccc1)c1ccccc1 [Compound 248]
329

* * *

protocol-details: % transmission spectrum of 0.1% solution (breakthrough, steepness)
Type: physicochemical
run-conditions: value in nm where transmittance increases beyond 1%; 0.1% solution
Text: FIG. 2 is a is a graphical representation of the % transmission of compounds 142 and 143 measured in a 2 mm cuvette as 0.1% solutions in methanol (142 is the left most trace); […]
# Lookup of reported Breakthrough (1% T at 0.1%) keyed by entry
Respond numerically; units are nm and should not be typed.

Answered cases to consult:
CC(C)(C)C(=O)/C(=C/N1CCc2cc(C(=O)OCCCOC(=O)c3ccc4c(c3)CCN4/C=C(/C(=O)C(C)(C)C)c3ccccc3)ccc21)c1ccccc1 :: 401
CCCCC(CC)COC(=O)c1ccc2c(c1)CCN2C=C(C(=O)C(C)(C)C)c1ccccc1 (centres unmarked) :: 400

Next up:
Give its Breakthrough (1% T at 0.1%) value. Item: "Cc1cc(C)c(C(=O)/C(=C\N2CCc3cc(C(=O)OCCCOC(=O)c4ccc5c(c4)CCN5/C=C(/C(=O)c4c(C)cc(C)cc4C)c4ccccc4)ccc32)c2ccccc2)c(C)c1"
402

* * *

# Lookup of reported E (1%, 1 cm) keyed by entry
protocol-details: UV absorbance spectrum in solution (λmax, λcrit, extinction coefficients)
Type: physicochemical
run-conditions: mass extinction coefficient

Answered cases to consult:
COC(=O)c1ccc2c(c1)CCN2/C=C(/C(=O)OC1(C)CCCCC1)c1ccccc1 :: 1360
Cc1cc(C)c(C(=O)/C(=C\N2CCc3cc(C(=O)OCCCOC(=O)c4ccc5c(c4)CCN5/C=C(/C(=O)c4c(C)cc(C)cc4C)c4ccccc4)ccc32)c2ccccc2)c(C)c1 :: 1251
C=CCN(/C=C(\C(=O)C(F)(F)F)c1ccccc1)c1ccccc1 :: 673
Cc1cccc2c1N(/C=C(\C(=O)C(F)(F)F)c1ccccc1)CC2 :: 975
CCN(/C=C(\C(=O)C(F)(F)F)c1ccccc1)c1ccc(Br)cc1 :: 651

Give its E (1%, 1 cm) value. Item: "O=C(/C(=C\N1CCc2cc(Br)ccc21)c1ccccc1)C(F)(F)F"
994

Same for CCCCC(CC)COC(=O)c1ccc2c(c1)CCN2/C=C(/C(=O)C(C)(C)C)c1ccc(C#N)cc1 (stereo not shown)
1039

* * *

protocol-details: UV absorbance spectrum in solution (λmax, λcrit, extinction coefficients)
Format: physicochemical
run-conditions: critical wavelength
endpoint-label: λcrit (nm)
Respond numerically; units are nm and should not be typed.

Answered cases to consult:
CCN(/C=C(\C(=O)C(F)(F)F)c1ccccc1)CC :: 350
C=CCN(/C=C(\C(=O)C(F)(F)F)c1ccccc1)c1ccccc1 :: 365
Cc1ccc(C(=O)/C(=C/N(c2ccccc2)c2ccccc2)c2ccccc2)cc1 :: 384

Give its λcrit value. Item: CCCCCCC(=O)C1=CN(c2ccc(N3C=C(C(=O)CCCCCC)C(C)(C)CC3)cc2)CCC1(C)C [Compound 129, reference compound]
378

Same for "CCOC(=O)C(=O)/C(=C/N(c1ccccc1)c1ccccc1)c1ccccc1"
380

Same for "O=C(/C(=C\N1CCc2ccccc2C1)c1ccccc1)C(F)(F)F"
352

Same for "O=C(/C(=C(/c1ccccc1)N1CCCC1)c1ccccc1)C(F)(F)F"
387

Same for CCCCC(CC)COc1cccc(N(/C=C(\C(=O)C(F)(F)F)c2ccccc2)CC)c1 (stereo not drawn)
366

Same for CCCCC(CC)COC(=O)c1ccc2c(c1)CCN2/C=C(/C(=O)c1ccncc1)c1ccccc1 (stereo not drawn)
391

Same for "CCN(/C=C(\C(=O)C(F)(F)F)c1ccccc1)CCCCCCN(/C=C(\C(=O)C(F)(F)F)c1ccccc1)CC"
353

Same for "COc1ccc2c(c1)CCN2/C=C(\C(=O)C(F)(F)F)c1ccccc1"
393

Same for "Cc1ccccc1C(=O)/C(=C/N(c1ccccc1)c1ccccc1)c1ccccc1"
373

Same for "CCN(/C=C(/C(=O)c1ccccc1OC)c1ccccc1)c1ccccc1"
366

Same for "CCOC(=O)C(=O)/C(=C/N1CCc2cc(C(=O)OC)ccc21)c1ccccc1"
391

Same for "COC(=O)c1ccc2c(c1)CCN2C=C(C(=O)C(C)(C)C)c1ccc(C)cc1"
385

* * *

protocol-details: % transmission spectrum of 0.1% solution (breakthrough, steepness)
Type: physicochemical
run-conditions: distance in nm over which transmittance increases from 1 to 80%
Quick rule for you: Steepness under 20 nm gets condition met, anything else gets condition not met.

Given the entry CC1(C)CN(/C=C(\C(=O)C(F)(F)F)c2ccccc2)c2ccccc21 [Compound 213] , would its reported Steepness be below 20 nm?
condition not met

* * *

protocol-details: % transmission spectrum of 0.1% solution (breakthrough, steepness)
Type: physicochemical
run-conditions: value in nm where transmittance increases beyond 1%; 0.1% solution
endpoint-label: Breakthrough (1% T at 0.1%)
The answer should read as a number with its unit following.

Answered cases to consult:
Cc1cc(C)c(C(=O)/C(=C/N2CCc3ccccc32)c2ccccc2)c(C)c1 [Compound 253] :: 392 nm
CCN(/C=C(\C(=O)C(F)(F)F)c1ccccc1)CCCCCCN(/C=C(\C(=O)C(F)(F)F)c1ccccc1)CC [Compound 242] :: 361 nm

Give its Breakthrough (1% T at 0.1%) value. Item: CCOC(=O)C(=O)/C(=C\N1CCc2ccccc21)c1ccccc1 [Compound 231]
418 nm

* * *

protocol-details: UV absorbance spectrum in solution (λmax, λcrit, extinction coefficients)
Format: physicochemical
endpoint-label: λmax (nm)
Respond numerically; units are nm and should not be typed.

Answered cases to consult:
CCCN(/C=C(\C(=O)C(F)(F)F)c1ccccc1)c1ccc(N(/C=C(\C(=O)C(F)(F)F)c2ccccc2)CCC)cc1 [Compound 196] :: 344
CCCCC(CC)COC(=O)c1ccc2c(c1)CCN2/C=C(/C(=O)C(C)(C)C)c1ccc(Br)cc1 (stereo not drawn) [Compound 309] :: 366

Next up:
Give its λmax value. Item: COc1ccccc1C(=O)/C(=C/N(c1ccccc1)c1ccccc1)c1ccccc1 [Compound 285]
345

* * *

protocol-details: UV absorbance spectrum in solution (λmax, λcrit, extinction coefficients)
Type: physicochemical
run-conditions: critical wavelength
endpoint-label: λcrit
The answer should read as a number with its unit following.

Answered cases to consult:
Cc1ccc(C(=O)/C(=C/N2CCc3ccccc32)c2ccccc2)cc1 [Compound 272] :: 386 nm
COC(=O)c1ccc2c(c1)CCN2C=C(C(=O)c1c(C)cc(C)cc1C)c1ccccc1 [Compound 282] :: 382 nm
CCN(/C=C(\C(=O)c1c(F)c(F)c(F)c(F)c1F)c1ccccc1)CC [Compound 203] :: 356 nm

Next up:
Give its λcrit value. Item: O=C(/C(=C\N(Cc1ccccc1)c1ccccc1)c1ccccc1)C(F)(F)F [Compound 162]
365 nm

* * *

protocol-details: UV absorbance spectrum in solution (λmax, λcrit, extinction coefficients)
Format: physicochemical
run-conditions: mass extinction coefficient
Quick rule for you: E (1%, 1 cm) under 800 gets Met, anything else gets Not met.

CC1(C)CN(/C=C(/C(=O)c2ccccc2)c2ccccc2)c2ccccc21 :: Met
CCOC(=O)/C(=C\N(C)C)c1ccccc1 :: Not met
CCN(/C=C(\C(=O)C(F)(F)F)c1ccccc1)CCCCCCN(/C=C(\C(=O)C(F)(F)F)c1ccccc1)CC :: Met
CCOc1ccc(/C(=C/N(CC)c2ccccc2)C(=O)C(F)(F)F)cc1 :: Not met
CCCCC(CC)COc1ccc(N(/C=C(\C(=O)C(F)(F)F)c2ccccc2)CC)cc1 (stereo not shown) :: Met

Given the entry "Cc1ccc(C(=O)/C(=C/N(c2ccccc2)c2ccccc2)c2ccccc2)cc1" , would its reported E (1%, 1 cm) be below 800?
Met

Same for "COC(=O)c1ccc2c(c1)CCN2/C=C(/C(=O)C(=O)N1CCc2ccccc21)c1ccccc1"
Not met

Same for "CCN(/C=C(/C(=O)C(=O)N(C)C)c1ccccc1)CC"
Not met

Same for "CCOC(=O)C(=O)/C(=C\N1CCc2ccccc21)c1ccccc1"
Not met
